Cited source: PubChem BioAssay (NCATS)

test: BET inhibitor-based combinations targeting novel dependencies in MECOM-rearranged (r) AML: UCSD-AML1 cell line (AID 2202235); conditions: UCSD-AML1 AML cells viability, CellTiter-Glo, 48 h; series mostly up to 46 µM; note: nearly all actives have a fitted effect of over 40% in size
Records with an inconclusive call do not appear. Active and inactive are the calls of the source. Calls come from the whole dose curve; as a rule, active = well fitted inhibition curve with a large enough effect; inconclusive = small, poorly fitted or top-dose-only effect; inactive = no such curve, though single readings can be large or run the other way.
Tick one outcome: active, inactive

Q: Dear colleague, could you share the recorded outcome for "CCc1cncnc1N1CCN(Cc2nc3ccc(C(F)(F)F)cc3[nH]2)CC1" when you have a moment?
Result: inactive

Q: Dear colleague, could you share the recorded outcome for "COc1cc2c(c(OC)c1OC)-c1ccc(OC)c(=O)cc1[C@@H](NC(C)=O)CC2" when you have a moment?
Result: active

Q: Dear colleague, could you share the recorded outcome for "Clc1ccccc1CN1CCc2sccc2C1" when you have a moment?
Result: inactive

Q: Dear colleague, could you share the recorded outcome for "CNC[C@H](O)c1ccc(O)c(O)c1" when you have a moment?
Result: inactive

Q: Dear colleague, could you share the recorded outcome for "CC(=O)OCCN1C(=O)c2c(C)nc3ccc(S(=O)(=O)N4CCOCC4)cc3c2C1=O" when you have a moment?
Result: inactive

Q: Dear colleague, could you share the recorded outcome for "Cc1ccc2c(=O)c3cccc(CC(=O)O)c3oc2c1C" when you have a moment?
Result: inactive

====

Kindly supply the reported viability values for the records listed here.
Test: BET inhibitor-based combinations targeting novel dependencies in MECOM-rearranged (r) AML: SET-2 cell line (AID 2202231);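 note: plate controls were DMSO treated cells for no effect and wells without cells for full effect; nearly all actives have a fitted effect of over 35% in size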
Details: SET-2 AML cells viability, CellTiter-Glo luminescence, 48 h; stronger effect = lower value, concentration not given here
Method: Ecotropic viral insertion site 1 (EVI1) is located on chromosome 3q26.2 as part of the MECOM (MDS and EVI1 complex) locus. […] A collection of 2480 mechanistically annotated dugs (MIPE v5.0) was used to screen four 3q26.2 rearranged AML cell lines and three non-3q26.2 rearranged AML cell lines. […] Cell viability was determined by luminescence based, Cell Titer Glo assay (Promega). […] Luminescence readings were taken using a Viewlux (PerkinElmer) with a 2 s exposure time per plate. […]
Records with an inconclusive call do not appear. Calls of active or inactive are those of the source. Calls come from the whole dose curve; as a rule, active = well fitted inhibition curve with a large enough effect; inconclusive = small, poorly fitted or top-dose-only effect; inactive = no such curve, though single readings can be large or run the other way.

GET /value?item= "Cn1ccc2cc3c(cc21)CCN3C(=O)Nc1cccnc1" &field=viability returns 105% (inactive)

GET /value?item= "COc1cc(C(=O)NS(=O)(=O)c2ccccc2C)ccc1Cc1cn(C)c2ccc(NC(=O)OC3CCCC3)cc12" &field=viability returns 119% (inactive)

GET /value?item= "NCc1c[nH]c(=S)n1[C@H]1CCc2c(F)cc(F)cc2C1" &field=viability returns 110% (inactive)

GET /value?item= "CCOC(=O)c1ccc(OC(=O)CCCCCN=C(N)N)cc1" &field=viability returns 106% (inactive)

GET /value?item= "Nc1nc2c(ncn2COC(CO)CO)c(=O)[nH]1" &field=viability returns 113% (inactive)

GET /value?item= "O=P(O)(O)C(O)(Cn1ccnc1)P(=O)(O)O" &field=viability returns 112% (inactive)

GET /value?item= "Cc1c(CCOc2ccc(C(=O)O)cc2)c2cc(Cl)ccc2n1C(c1ccccc1)c1ccccc1" &field=viability returns 114% (inactive)

GET /value?item= "CCCc1cc(=O)[nH]c(=S)[nH]1" &field=viability returns 110% (inactive)

GET /value?item= "COc1ccc(-n2c(SCCCN3C(=O)c4cccc5cccc(c45)C3=O)nnc2-c2ccncc2)cc1" &field=viability returns 102% (inactive)

GET /value?item= "C[C@H]1Oc2cc(cnc2N)-c2c(nn(C)c2C#N)CN(C)C(=O)c2ccc(F)cc21" &field=viability returns 98.3% (inactive)

GET /value?item= "Cc1ccc(NC(=O)c2cccc(N(C)C)c2)cc1NC(=O)c1ccc(O)cc1" &field=viability returns 90.3% (inactive)

GET /value?item= "Cn1cnc(-c2cc3nccc(Oc4ccc(NC(=S)NC(=O)Cc5ccccc5)cc4F)c3s2)c1" &field=viability returns 78.9% (inactive)

GET /value?item= "CC(=O)Nc1cccc(-n2c(=O)n(C3CC3)c(=O)c3c(Nc4ccc(I)cc4F)n(C)c(=O)c(C)c32)c1" &field=viability returns 89.5% (inactive)

GET /value?item= "Cc1nn(C)c(COc2ccc(N3CCN(S(=O)(=O)N(C)C)CC3)cc2)c1-c1cccc2c(CCCOc3cccc4ccccc34)c(C(=O)O)n(CCN3CCOCC3)c12" &field=viability returns 112% (inactive)

GET /value?item= "Nc1nc(-c2nn(Cc3ccccc3F)c3ncccc23)nc(N)c1N1CCOCC1" &field=viability returns 123% (inactive)

GET /value?item= "O=c1c(O)c(-c2ccc(O)cc2O)oc2cc(O)cc(O)c12" &field=viability returns 122% (inactive)

GET /value?item= Nc1nc(N)c2nc(CNc3ccc(C(=O)NC(CCC(=O)O)C(=O)O)cc3)cnc2n1 (stereo not given) &field=viability returns 90.9% (inactive)

GET /value?item= "CCS(=O)(=O)N1CCC([C@@H](C)n2c(C)c(C(=O)NCc3c(OC)cc(C)[nH]c3=O)c3ccccc32)CC1" &field=viability returns 115% (inactive)

GET /value?item= "CCn1c(-c2nonc2N)nc2cncc(CNC3CCNCC3)c21" &field=viability returns 103% (inactive)

GET /value?item= "Cc1cc(O)c2c(c1)C(=O)c1cccc(O)c1C2=O" &field=viability returns 116% (inactive)

====

assay: BET inhibitor-based combinations targeting novel dependencies in MECOM-rearranged (r) AML: UCSD-AML1 cell line (AID 2202235); details: UCSD-AML1 AML cells viability, CellTiter-Glo, 48 h; series mostly up to 46 µM; note: nearly all actives have a fitted effect of over 40% in size
Inconclusive results are not listed. Activity calls are given as the source filed them. Calls follow the shape of the dose curve; as a rule, active = well fitted inhibition curve with a large enough effect; inconclusive = small, poorly fitted or top-dose-only effect; inactive = no such curve, though single readings can be large or run the other way.
Tick one outcome: t (active), f (inactive)

Q: Dear colleague, could you share the recorded outcome for "NCCCC(O)(P(=O)(O)O)P(=O)(O)O" when you have a moment?
Result: f

Q: Dear colleague, could you share the recorded outcome for "Cc1cc(C2CCCCC2)n(O)c(=O)c1" when you have a moment?
Result: t

Q: Dear colleague, could you share the recorded outcome for "Cc1cc2cc3c(C)cc(=O)oc3c(C)c2o1" when you have a moment?
Result: f

Q: Dear colleague, could you share the recorded outcome for "COc1cccc2c1C(=O)c1c(O)c3c(c(O)c1C2=O)C[C@@](O)(C(=O)CO)C[C@@H]3O[C@H]1C[C@H](N)[C@H](O)[C@H](C)O1" when you have a moment?
Result: t

Q: Dear colleague, could you share the recorded outcome for "CS(=O)(=O)c1ccc(C(=O)Nc2ccc(Cl)c(-c3ccccn3)c2)c(Cl)c1" when you have a moment?
Result: f

Q: Dear colleague, could you share the recorded outcome for "CN(C)CCOC(c1ccccc1)c1ccccc1" when you have a moment?
Result: f

Q: Dear colleague, could you share the recorded outcome for "CC(C)(C)C(=O)Oc1ccc2c(c1)nc(NC(=O)c1cccc([N+](=O)[O-])c1)n2CCCO" when you have a moment?
Result: f

Q: Dear colleague, could you share the recorded outcome for "Cc1c(F)cc(C(=O)NC2CC2)cc1-c1c(F)cn2c(C(C)(C)C)nnc2c1F" when you have a moment?
Result: f

Q: Dear colleague, could you share the recorded outcome for "COc1c(C)c2c(c(O)c1C/C=C(\C)CCC(=O)OCCN1CCOCC1)C(=O)OC2" when you have a moment?
Result: t

Q: Dear colleague, could you share the recorded outcome for CCn1cc(C(=O)O)c(=O)c2cc(F)c(N3CCNC(C)C3)c(F)c21 (stereo unspecified) when you have a moment?
Result: f

Q: Dear colleague, could you share the recorded outcome for "O=C(c1ccc(OCCN2CCCCC2)cc1)c1c(-c2ccc(O)cc2)sc2cc(O)ccc12" when you have a moment?
Result: f

Q: Dear colleague, could you share the recorded outcome for "CC(C)c1ccc2c(c1)c(SC(C)(C)C)c(CC(C)(C)C(=O)O)n2Cc1ccc(Cl)cc1" when you have a moment?
Result: f

Q: Dear colleague, could you share the recorded outcome for "O=C(O)c1cccc(-c2noc(-c3ccccc3F)n2)c1" when you have a moment?
Result: t

Q: Dear colleague, could you share the recorded outcome for "O=C(CCCc1ccc2cccnc2n1)NCc1cc(-c2ccc(F)c(C(F)(F)F)c2)no1" when you have a moment?
Result: f

Q: Dear colleague, could you share the recorded outcome for "NC(=O)c1ccccc1Nc1ccnc(Nc2cccc(O)c2)n1" when you have a moment?
Result: t

Q: Dear colleague, could you share the recorded outcome for "O=C(O)[C@H](O)[C@@H](O)[C@H](O[C@@H]1O[C@H](CO)[C@H](O)[C@H](O)[C@H]1O)[C@H](O)CO" when you have a moment?
Result: f

Q: Dear colleague, could you share the recorded outcome for "CCCc1nc(C(C)(C)O)c(C(=O)O)n1Cc1ccc(-c2ccccc2-c2nn[nH]n2)cc1" when you have a moment?
Result: f

Q: Dear colleague, could you share the recorded outcome for "CN(Cc1cc(Br)cc(Br)c1N)C1CCCCC1" when you have a moment?
Result: f

Q: Dear colleague, could you share the recorded outcome for "COCCOc1ccc(N2CCN(CCn3ncc4c3nc(N)n3nc(-c5ccco5)nc43)CC2)cc1" when you have a moment?
Result: f

Q: Dear colleague, could you share the recorded outcome for "CC(=O)[C@]1(O)Cc2c(O)c3c(c(O)c2[C@@H](O[C@H]2C[C@H](N)[C@H](O)[C@H](C)O2)C1)C(=O)c1ccccc1C3=O" when you have a moment?
Result: t

Q: Dear colleague, could you share the recorded outcome for "Nc1nc(N)c2nc(-c3cccc(O)c3)c(-c3cccc(O)c3)nc2n1" when you have a moment?
Result: f
